Recorded furin cleavage Z-score, one value per entry.
target: furin, P09958; test: furin cleavage Z-score vs untreated control; higher = more cleavage, active = 3.5 or more, inactive = 1 or less, 8 variable residues between constant flanks; conditions: 30 min;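 note: purified furin at 1:10 enzyme:substrate in 50 mM HEPES pH 7.5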
Sequence (P09958 whole entry): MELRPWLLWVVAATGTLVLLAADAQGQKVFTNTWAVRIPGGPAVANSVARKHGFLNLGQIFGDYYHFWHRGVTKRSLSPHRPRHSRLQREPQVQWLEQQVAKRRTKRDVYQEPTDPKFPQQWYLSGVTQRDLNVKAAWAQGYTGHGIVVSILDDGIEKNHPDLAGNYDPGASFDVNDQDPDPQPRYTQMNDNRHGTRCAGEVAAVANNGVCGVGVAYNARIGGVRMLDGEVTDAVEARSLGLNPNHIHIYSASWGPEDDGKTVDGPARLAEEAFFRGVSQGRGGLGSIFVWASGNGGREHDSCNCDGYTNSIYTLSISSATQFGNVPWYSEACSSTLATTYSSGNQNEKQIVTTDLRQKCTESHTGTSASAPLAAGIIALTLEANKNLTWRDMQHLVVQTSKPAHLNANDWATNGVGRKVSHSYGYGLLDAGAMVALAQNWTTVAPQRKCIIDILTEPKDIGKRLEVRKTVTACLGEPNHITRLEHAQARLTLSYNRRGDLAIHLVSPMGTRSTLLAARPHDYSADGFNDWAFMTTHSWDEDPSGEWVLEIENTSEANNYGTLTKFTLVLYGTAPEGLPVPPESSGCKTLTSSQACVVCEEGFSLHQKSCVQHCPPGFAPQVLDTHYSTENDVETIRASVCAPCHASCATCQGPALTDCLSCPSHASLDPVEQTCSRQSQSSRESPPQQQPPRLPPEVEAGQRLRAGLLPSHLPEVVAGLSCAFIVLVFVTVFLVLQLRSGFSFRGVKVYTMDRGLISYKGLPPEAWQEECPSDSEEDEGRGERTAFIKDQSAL
Some of the results follow. The true hit rate is not given.
metric: furin cleavage Z-score

monomer_sequence="CAYEECSQHLAGNASASA [HC1669]" metric="furin cleavage Z-score" value_measured=2.11
monomer_sequence="CALRRRCQRDAGNASASA [FS-459]" metric="furin cleavage Z-score" value_measured="7.39 (active)"
monomer_sequence="CAMTECSQHLAGNASASA [HC1698]" metric="furin cleavage Z-score" value_measured="0.28 (inactive)"
monomer_sequence="CAFLLLADARAGNASASA [HC522]" metric="furin cleavage Z-score" value_measured="-0.66 (inactive)"
monomer_sequence="CAKPMRQQRDAGNASASA [FS-343]" metric="furin cleavage Z-score" value_measured="7.03 (active)"
monomer_sequence="CAVLATATPPAGNASASA [HC833]" metric="furin cleavage Z-score" value_measured="-0.599 (inactive)"
monomer_sequence="CAVREVPCHRAGNASASA [HC2430]" metric="furin cleavage Z-score" value_measured="-0.128 (inactive)"
monomer_sequence="CAANRRDVRLAGNASASA [FS-322]" metric="furin cleavage Z-score" value_measured=1.41
monomer_sequence="CASSIASWAIAGNASASA [HC514]" metric="furin cleavage Z-score" value_measured=2.3
monomer_sequence="CAQAETAGARAGNASASA [HC828]" metric="furin cleavage Z-score" value_measured="-1.08 (inactive)"
monomer_sequence="CANCGYRRCRAGNASASA [HC1507]" metric="furin cleavage Z-score" value_measured="0.265 (inactive)"
monomer_sequence="CAELNRSKKDAGNASASA [FS-232]" metric="furin cleavage Z-score" value_measured="0.715 (inactive)"
monomer_sequence="CATKRRNQRDAGNASASA [FS-509]" metric="furin cleavage Z-score" value_measured="8.15 (active)"
monomer_sequence="CATDRSGAPTAGNASASA [HC420]" metric="furin cleavage Z-score" value_measured="0.262 (inactive)"
monomer_sequence="CAGEECSQHLAGNASASA [HC1676]" metric="furin cleavage Z-score" value_measured="-0.903 (inactive)"
monomer_sequence="CAFPNRDQRDAGNASASA [FS-652]" metric="furin cleavage Z-score" value_measured="-0.133 (inactive)"
monomer_sequence="CASNQRPKRLAGNASASA [FS-298]" metric="furin cleavage Z-score" value_measured="7.26 (active)"
monomer_sequence="CAPLNVRGGRAGNASASA [HC592]" metric="furin cleavage Z-score" value_measured="0.124 (inactive)"
monomer_sequence="CAEKERSKRSAGNASASA [FS-1626]" metric="furin cleavage Z-score" value_measured="7.92 (active)"
monomer_sequence="CANEMEECSQAGNASASA [HC1801]" metric="furin cleavage Z-score" value_measured="-0.461 (inactive)"
monomer_sequence="CAPVSARRGRAGNASASA [HC661]" metric="furin cleavage Z-score" value_measured=2.39
monomer_sequence="CALRRRGPGKAGNASASA [FS-2124]" metric="furin cleavage Z-score" value_measured="-1.45 (inactive)"
monomer_sequence="CAQLSRAGRSAGNASASA [FS-81]" metric="furin cleavage Z-score" value_measured="8.08 (active)"
monomer_sequence="CAHVGPGEGAAGNASASA [HC1113]" metric="furin cleavage Z-score" value_measured="-1.05 (inactive)"
monomer_sequence="CALRRVLRRDAGNASASA [FS-56]" metric="furin cleavage Z-score" value_measured="5.29 (active)"
monomer_sequence="CASSARNKRSAGNASASA [FS-94]" metric="furin cleavage Z-score" value_measured="8.13 (active)"
monomer_sequence="CALPAILSPGAGNASASA [HC1102]" metric="furin cleavage Z-score" value_measured="-0.653 (inactive)"
monomer_sequence="CAEVVCHRPSAGNASASA [HC2350]" metric="furin cleavage Z-score" value_measured="0.34 (inactive)"
monomer_sequence="CAMEECSQQLAGNASASA [HC1762]" metric="furin cleavage Z-score" value_measured="0.503 (inactive)"
monomer_sequence="CADGPDGPEEAGNASASA [CS6]" metric="furin cleavage Z-score" value_measured="0.000165 (inactive)"
